biological target: human plasma kallikrein (Homo sapiens); experiment: Kallikrein inhibition assay utilizing a quenched AMC peptide substrate (FLINT); type: biochemical; settings: kinetic reads at 5 min intervals over 30 min; 30 min preincubation; read-out: Kallikrein (KIN) IC50
IC50: recorded values
Report the value in nM with no unit label.

Below, each entry is followed by its recorded IC50 result.
Compound	IC50 / nM
COC(=O)Nc1ccc(-c2cn(C(CC3CC3)c3ccc(-c4c(-n5cnnn5)ccc(Cl)c4F)c[n+]3[O-])nn2)cc1 (single isomer, unassigned) [T3]	269
[O-][n+]1cc(-c2c(-n3cc(C(F)(F)F)nn3)ccc(Cl)c2F)ccc1[C@@H](CCOC(F)F)n1cnc(-c2ncnn2C(F)F)c1	338
[O-][n+]1cc(-c2c(-n3cnnn3)ccc(Cl)c2F)ccc1[C@@H](CCOC(F)F)n1cnc(-c2cnnn2C(F)F)c1	29
Cn1nncc1-c1cn([C@H](CC2CC2)c2ccc(-c3c(-n4cnnn4)ccc(Cl)c3F)c[n+]2[O-])nn1	312

Which IC50 is listed for [O-][n+]1cc(-c2c(-n3cnnn3)ccc(Cl)c2F)ccc1C(Cc1ccc(F)cc1)n1cnc(-c2ccncc2)c1 (stereo not shown) ?
1.7

Query: IC50; subject: Cn1nncc1-c1cn([C@H](CCOC(F)F)c2ccc(-c3c(-n4cc(Cl)nn4)ccc(Cl)c3F)c[n+]2[O-])cn1
15.9

---

Biological target: human plasma kallikrein (Homo sapiens)
Assay: Kallikrein inhibition assay utilizing a quenched AMC peptide substrate (FLINT)
Assay type: biochemical
Details: kinetic reads at 5 min intervals over 30 min; 30 min preincubation; read-out: Kallikrein (KIN) IC50
Source text: Biological Example 2: Kallikrein Inhibition Assay Utilizing a Quenched AMC Peptide Substrate A fluorescence intensity (FLINT) based assay was used to monitor inhibition of human plasma kallikrein. The peptide substrate, Z-Gly-Pro-Arg-AMC (Purchased from Bachem; Catalog #I-1150) was chosen based on its relatively low KM for kallikrein which enables running the assay at lower substrate concentrations to control background fluorescence. […]
Quantity kind: IC50
Write the quantity with the unit trailing the number.

Observe how each entry below is paired with its result.
Molecule	System tested	IC50
Cn1nncc1-c1cn([C@H](CCOC(F)F)c2ccc(-c3c(-n4cc(C(F)(F)F)nn4)ccc(Cl)c3F)c[n+]2[O-])cn1	human plasma kallikrein (Homo sapiens)	48.9 nM
[2H]C([2H])([2H])n1nccc1-c1cn(C(CCOC(F)F)c2ccc(-c3c(-n4cc(C(F)(F)F)nn4)ccc(Cl)c3F)c[n+]2[O-])cn1 (single isomer, unassigned)	human plasma kallikrein (Homo sapiens)	31.7 nM

Read the next record carefully.
Reported IC50, molecule COC(=O)Nc1ccc(-c2cn(C(CC3CC3)c3ccc(-c4c(-n5cnnn5)ccc(Cl)c4F)c[n+]3[O-])cn2)cc1 (stereo not drawn) : ____
169 nM

---

This section presents compounds with their documented IC50 values.
molecular target: human plasma kallikrein (Homo sapiens, UniProt P03952); assay: Kallikrein inhibition assay utilizing a quenched AMC peptide substrate (FLINT); format: biochemical; details: kinetic reads; unit μM; read-out: Kallikrein (KIN) IC50
Sequence (P03952 391-638 limits assumed): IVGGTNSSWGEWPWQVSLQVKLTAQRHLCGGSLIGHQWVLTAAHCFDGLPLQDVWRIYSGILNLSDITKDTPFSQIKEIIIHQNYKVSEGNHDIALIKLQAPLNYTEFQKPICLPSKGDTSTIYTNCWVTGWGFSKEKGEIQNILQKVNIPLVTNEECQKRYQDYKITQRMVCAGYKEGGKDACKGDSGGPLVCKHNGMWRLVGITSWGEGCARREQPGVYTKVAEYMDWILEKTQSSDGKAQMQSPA
Sequence (P03952 20-390 partner limits assumed): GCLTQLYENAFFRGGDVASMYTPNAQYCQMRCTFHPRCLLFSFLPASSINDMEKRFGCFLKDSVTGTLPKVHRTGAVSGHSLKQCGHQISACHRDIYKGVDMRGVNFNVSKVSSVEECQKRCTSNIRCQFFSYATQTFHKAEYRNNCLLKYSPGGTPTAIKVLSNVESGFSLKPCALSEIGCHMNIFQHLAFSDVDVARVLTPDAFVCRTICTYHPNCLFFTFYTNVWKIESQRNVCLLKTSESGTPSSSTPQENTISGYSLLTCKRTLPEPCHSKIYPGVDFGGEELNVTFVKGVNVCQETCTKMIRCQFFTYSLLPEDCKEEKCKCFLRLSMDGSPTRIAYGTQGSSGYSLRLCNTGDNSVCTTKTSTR

Recorded IC50, per entry:
Compound	System tested	IC50
[O-][n+]1cc(-c2c(-n3cnnn3)ccc(Cl)c2F)ccc1[C@H](CCOC(F)F)n1cnc(-c2cnnn2C(F)F)c1 [M13]	human plasma kallikrein (Homo sapiens, UniProt P03952)	> 2 µM
[O-][n+]1cc(-c2c(-n3cc(C(F)(F)F)nn3)ccc(Cl)c2F)ccc1[C@H](CCOC(F)F)n1cnc(-c2ncnn2C(F)F)c1 [M6]	human plasma kallikrein (Homo sapiens, UniProt P03952)	> 10 µM

Notebook: pull reported IC50 for human plasma kallikrein (Homo sapiens, UniProt P03952), entry Cn1nncc1-c1cn([C@@H](CCOC(F)F)c2ccc(-c3c(-n4cc(C(F)(F)F)nn4)ccc(Cl)c3F)c[n+]2[O-])cn1 [M8]
> 20 µM

Fill in the recorded IC50 for this compound, with human plasma kallikrein (Homo sapiens, UniProt P03952) as test system: [2H]C([2H])([2H])n1nccc1-c1cn(C(CCOC(F)F)c2ccc(-c3c(-n4cc(C(F)(F)F)nn4)ccc(Cl)c3F)c[n+]2[O-])cn1 (single isomer, unassigned) [M15]
> 1 µM

Short answer please: IC50, human plasma kallikrein (Homo sapiens, UniProt P03952), entry Cn1nncc1-c1cn([C@@H](CC2CC2)c2ccc(-c3c(-n4cnnn4)ccc(Cl)c3F)c[n+]2[O-])nn1 [T5]
> 10 µM

Record Cn1nncc1-c1cn([C@@H](CCOC(F)F)c2ccc(-c3c(-n4cc(Cl)nn4)ccc(Cl)c3F)c[n+]2[O-])cn1 [M11] : what is its IC50 with human plasma kallikrein (Homo sapiens, UniProt P03952)?
> 20 µM

Query the reported IC50 for human plasma kallikrein (Homo sapiens, UniProt P03952); item: [O-][n+]1cc(-c2c(-n3cc(C(F)(F)F)nn3)ccc(Cl)c2F)ccc1[C@H](CCOC(F)F)n1cc(-c2cnnn2C(F)F)nn1 [T9]
> 1 µM

---

target: Factor XIa (Homo sapiens); assay: Factor XIa inhibition assay utilizing a fluorophore-quencher pair peptide substrate (FLINT); format: biochemical; conditions: end point read at 30 min; 30 min preincubation; read-out: FXIa (EP) IC50
Quantity kind: pIC50
Remember, pIC50 is on a log scale: it is -log10 of the molar concentration.

Molecule	pIC50
O=C(O)c1ccc(-c2cn(C(CC3CC3)c3ccc(-c4cc(Cl)ccc4-n4cnnn4)c[n+]3[O-])cn2)cc1 (stereo not shown) [M1]	8.15
O=C(NC1CC1)c1ccc(-c2cn(C(CC3CC3)c3ccc(-c4cc(Cl)ccc4-n4cnnn4)c[n+]3[O-])nn2)cc1 (stereo not shown) [T2]	7.42
O=C(N[C@H]1C[C@H](O)C1)c1ccc(-c2cn(C(CC3CC3)c3ccc(-c4cc(Cl)ccc4-n4cnnn4)c[n+]3[O-])cn2)cc1 (mixture of isomers) [M2]	7.00

Field request: pIC50 | item: O=C(O)c1ccc(-c2cn(C(CC3CC3)c3ccc(-c4cc(Cl)ccc4-n4cnnn4)c[n+]3[O-])nn2)cc1 (stereo not shown) [T1]
8.80

---

molecular target: Factor XIa (Homo sapiens, UniProt P03951); test: Factor XIa inhibition assay utilizing a fluorophore-quencher pair peptide substrate (FLINT); assay type: biochemical; conditions: kinetic reads at 5 min intervals over 30 min; 30 min preincubation; read-out: FXIa (KIN) IC50
Sequence (P03951 388-625 limits assumed): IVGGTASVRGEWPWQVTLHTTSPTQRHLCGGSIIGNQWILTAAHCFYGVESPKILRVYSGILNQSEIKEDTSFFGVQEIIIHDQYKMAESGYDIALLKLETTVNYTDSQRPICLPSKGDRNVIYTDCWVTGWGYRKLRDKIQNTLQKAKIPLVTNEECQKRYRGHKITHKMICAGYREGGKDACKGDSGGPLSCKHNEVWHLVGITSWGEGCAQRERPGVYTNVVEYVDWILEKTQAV
Sequence (P03951 19-387 partner limits assumed): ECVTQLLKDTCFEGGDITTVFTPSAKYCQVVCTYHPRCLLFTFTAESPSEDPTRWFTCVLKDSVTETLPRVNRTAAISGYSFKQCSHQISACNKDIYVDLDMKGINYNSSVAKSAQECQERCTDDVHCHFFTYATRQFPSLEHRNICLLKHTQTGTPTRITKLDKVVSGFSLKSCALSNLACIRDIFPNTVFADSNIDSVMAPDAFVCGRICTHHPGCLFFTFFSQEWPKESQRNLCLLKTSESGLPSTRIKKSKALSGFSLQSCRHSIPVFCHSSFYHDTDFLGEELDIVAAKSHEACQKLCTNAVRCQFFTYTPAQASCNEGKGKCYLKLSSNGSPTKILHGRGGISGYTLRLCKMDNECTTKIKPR
pIC50: −log10 of the molar value.
Is pIC50 at least 9? Then True. If not, False.

For orientation, consider the following solved cases.
Molecule	Category label
Cn1nncc1-c1cn([C@H](CCOC(F)F)c2ccc(-c3c(-n4cc(Cl)nn4)ccc(Cl)c3F)c[n+]2[O-])cn1	True
[2H]C([2H])([2H])n1nccc1-c1cn(C(CCOC(F)F)c2ccc(-c3c(-n4cc(C(F)(F)F)nn4)ccc(Cl)c3F)c[n+]2[O-])cn1 (single isomer, unassigned) [M16]	True
Cn1nncc1-c1cn([C@H](CCOC(F)F)c2ccc(-c3c(-n4cc(C(F)(F)F)nn4)ccc(Cl)c3F)c[n+]2[O-])cn1	True
[O-][n+]1cc(-c2c(-n3cc(C(F)(F)F)nn3)ccc(Cl)c2F)ccc1[C@H](CCOC(F)F)n1cc(-c2cnnn2C(F)F)nn1	False
Cn1nncc1-c1cn([C@H](CC2CC2)c2ccc(-c3c(-n4cnnn4)ccc(Cl)c3F)c[n+]2[O-])nn1	False

Kindly determine if pIC50 recorded for Cn1nncc1-c1cn([C@@H](CCOC(F)F)c2ccc(-c3c(-n4cc(Cl)nn4)ccc(Cl)c3F)c[n+]2[O-])cn1 is above or exactly 9.
False

Test whether the molecule Cn1nncc1-c1cn([C@@H](CC2CC2)c2ccc(-c3c(-n4cnnn4)ccc(Cl)c3F)c[n+]2[O-])nn1 records pIC50 of 9 or higher.
False

Kindly determine if pIC50 recorded for Cn1nncc1-c1cn([C@@H](CCOC(F)F)c2ccc(-c3c(-n4cc(C(F)(F)F)nn4)ccc(Cl)c3F)c[n+]2[O-])cn1 is above or exactly 9.
False

Does pIC50 meet or surpass 9 for [O-][n+]1cc(-c2c(-n3cnnn3)ccc(Cl)c2F)ccc1[C@@H](CCOC(F)F)n1cnc(-c2cnnn2C(F)F)c1 ?
True

---

target: human plasma kallikrein (Homo sapiens, UniProt P03952); assay: Kallikrein inhibition assay utilizing a quenched AMC peptide substrate (FLINT); assay type: biochemical; settings: kinetic reads at 5 min intervals over 30 min; 30 min preincubation; read-out: Kallikrein (KIN) IC50
Quantity kind: pIC50
Remember the convention: pIC50 equals -log10 of concentration in molar.

Compound	pIC50
Cn1ncnc1-c1cn(C(CCOC(F)F)c2ccc(-c3c(-n4cc(C(F)(F)F)nn4)ccc(Cl)c3F)c[n+]2[O-])cn1 (stereo not drawn) [M9]	6.27

# pIC50 lookup, item COC(=O)Nc1ccc(-c2cn(C(CC3CC3)c3ccc(-c4c(-n5cnnn5)ccc(Cl)c4F)c[n+]3[O-])nn2)cc1 (single isomer, unassigned) [T4]
7.83

Need pIC50 of CCC(c1ccc(-c2c(-n3cnnn3)ccc(Cl)c2F)c[n+]1[O-])n1cnc(-c2ccc(NC(=O)OC)cc2)c1 (racemic) [M4] , thanks.
6.69

Sourced from patent US20240228465A1
